The variants listed here are annotated with their protein stability index.
B1: PCMTD2 (parent)
chain: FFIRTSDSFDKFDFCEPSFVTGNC

variants of: B1; test: protein stability index of a GFP-peptide fusion (GPS, HEK-293T) (PSI 1-6); higher = more stable; conditions: c terminus: a fixed tail appended;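 further: lentivirally expressed fusions sorted by FACS into six bins by GFP to DsRed ratio, PSI derived from sequencing read proportions per bin multiplied by bin number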
Respond with the number and no other words.

Please review the entries below; each comes with its answer.
I3E
2.04
V20F
3
S18F
2.02
S18N
2.91

Next:
Query: Name the recorded protein stability index for F19K .
Response: 1.95

Each recorded value in this set is attributed to the supplement of paper PMC10567573.
